# systemUnderTest: High affinity nerve growth factor receptor (Homo sapiens) (UniProt P04629)
# Sequence (P04629 33-796 limits assumed): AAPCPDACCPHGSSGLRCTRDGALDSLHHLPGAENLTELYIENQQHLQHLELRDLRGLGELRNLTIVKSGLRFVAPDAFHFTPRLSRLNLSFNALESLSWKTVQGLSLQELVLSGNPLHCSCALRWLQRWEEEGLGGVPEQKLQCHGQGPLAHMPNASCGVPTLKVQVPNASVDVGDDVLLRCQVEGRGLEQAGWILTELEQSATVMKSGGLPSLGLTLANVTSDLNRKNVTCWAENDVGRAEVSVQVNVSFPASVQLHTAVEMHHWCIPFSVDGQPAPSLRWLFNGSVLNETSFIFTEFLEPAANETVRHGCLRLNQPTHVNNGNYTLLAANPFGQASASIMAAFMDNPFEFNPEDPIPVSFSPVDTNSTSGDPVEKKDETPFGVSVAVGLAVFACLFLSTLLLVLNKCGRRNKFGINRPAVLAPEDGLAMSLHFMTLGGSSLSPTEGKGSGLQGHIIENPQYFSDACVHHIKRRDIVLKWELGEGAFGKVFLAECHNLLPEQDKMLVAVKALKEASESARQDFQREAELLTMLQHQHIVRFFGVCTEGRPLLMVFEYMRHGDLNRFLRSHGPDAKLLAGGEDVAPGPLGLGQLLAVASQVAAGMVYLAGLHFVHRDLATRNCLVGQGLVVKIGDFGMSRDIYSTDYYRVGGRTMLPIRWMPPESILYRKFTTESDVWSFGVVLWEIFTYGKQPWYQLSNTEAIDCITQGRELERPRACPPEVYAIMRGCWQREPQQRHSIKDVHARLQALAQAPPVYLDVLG
# conditionParameters: at 10 µM
The label is Fulfilled for residual activity below 30% and Not fulfilled for residual activity equal to or exceeding 30%.

Some solved entries appear below for comparison.
> print(dat)
                                   compound                           systemundertest            cat
1  O=S(=O)(NCCNC/C=C/c1ccc(Br)cc1)c1cccc2cnccc12  High affinity nerve growth factor receptor (Homo sapiens) (UniProt P04629)  Not fulfilled
2  CSc1nc(-c2ccc(F)cc2)c(-c2ccnc(NC(C)c3ccccc3)c2)[nH]1 (stereo not given)  High affinity nerve growth factor receptor (Homo sapiens) (UniProt P04629)  Not fulfilled

Prompt: Does `O=C1Nc2ccc(Cl)cc2/C1=C/c1cc(Cl)c(O)c(Cl)c1` have residual activity strictly under 30%?
Response: Fulfilled

Prompt: I'd appreciate it if you could check whether `COc1cc2nccc(Oc3ccc(NC(=O)Nc4cc(C)on4)c(Cl)c3)c2cc1OC` has residual activity smaller than 30%.
Response: Fulfilled

Prompt: Dear colleague, could you confirm whether residual activity of `Nc1nc(Nc2ccc(S(N)(=O)=O)cc2)nn1C(=O)c1c(F)cccc1F` falls below 30%? Thanks.
Response: Fulfilled

Prompt: Could you please tell me whether residual activity recorded for `O=C(c1cc2cc(O)ccc2[nH]1)c1cc2cc(O)ccc2[nH]1` is less than 30%?
Response: Fulfilled

Prompt: Is residual activity strictly under 30% for the entry `NC(=O)c1ccc(-c2nc(-c3ccc4c(c3)OCCO4)c(-c3ccccn3)[nH]2)cc1` ?
Response: Not fulfilled

The reported measurements were obtained from ChEMBL document CHEMBL2218924.
